systemName: human FSH receptor (Homo sapiens, UniProt P23945)
Sequence (P23945 18-695): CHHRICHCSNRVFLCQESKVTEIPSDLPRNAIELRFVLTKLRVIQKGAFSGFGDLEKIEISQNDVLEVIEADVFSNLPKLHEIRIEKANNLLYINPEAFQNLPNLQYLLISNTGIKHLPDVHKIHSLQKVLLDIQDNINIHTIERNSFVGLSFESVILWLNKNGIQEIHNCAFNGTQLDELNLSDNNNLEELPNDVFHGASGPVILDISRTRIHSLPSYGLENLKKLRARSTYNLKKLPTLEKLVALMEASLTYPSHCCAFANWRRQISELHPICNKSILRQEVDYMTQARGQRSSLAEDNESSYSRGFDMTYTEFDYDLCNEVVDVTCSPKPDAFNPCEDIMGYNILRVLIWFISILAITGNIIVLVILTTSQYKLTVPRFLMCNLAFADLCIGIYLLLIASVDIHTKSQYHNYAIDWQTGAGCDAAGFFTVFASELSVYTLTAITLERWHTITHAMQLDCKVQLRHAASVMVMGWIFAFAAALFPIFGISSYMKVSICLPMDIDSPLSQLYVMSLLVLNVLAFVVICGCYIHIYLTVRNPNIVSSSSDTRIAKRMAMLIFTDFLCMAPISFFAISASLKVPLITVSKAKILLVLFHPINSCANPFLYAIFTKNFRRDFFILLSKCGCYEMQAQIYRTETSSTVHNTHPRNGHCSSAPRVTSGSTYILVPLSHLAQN
assayProcedure: Follicle-Stimulating Hormone Receptor-Dependent Cre-Luciferase Reporter Gene Assay (CHO FSH-R 6CRE-Luc cells)
testParameters: dose-response format, in presence of EC50 of purified human FSH
pIC50: −log10 of the molar value.
measurementName: pIC50

[[record]]
compound = "Cc1ccc(CNC(=O)c2ccc3n2Cc2ccccc2N(C(=O)c2ccc(-c4ccccc4C)c(C)c2)C3)cc1"
systemname = "human FSH receptor (Homo sapiens, UniProt P23945)"
measurement = 5.77

[[record]]
compound = "O=C(NC1CCCc2ccccc21)c1ccc2n1Cc1ccccc1N(C(=O)COc1ccc(Cl)cc1)C2 (centres unmarked)"
systemname = "human FSH receptor (Homo sapiens, UniProt P23945)"
measurement = "< 4.52"

[[record]]
compound = "COc1cc(CNC(=O)c2ccc3n2Cc2ccccc2N(C(=O)c2ccc(-c4ccccc4C)c(OC)c2)C3)cc(OC)c1"
systemname = "human FSH receptor (Homo sapiens, UniProt P23945)"
measurement = "< 4.52"

[[record]]
compound = "COc1ccc(CNC(=O)c2ccc3n2Cc2ccccc2N(C(=O)c2ccc(-c4ccccc4C)c(C)c2)C3)cc1"
systemname = "human FSH receptor (Homo sapiens, UniProt P23945)"
measurement = 5.62

[[record]]
compound = "COc1cc(C(=O)N2Cc3ccc(C(=O)NCc4ccc(C)cc4)n3Cc3ccccc32)ccc1-c1ccccc1C"
systemname = "human FSH receptor (Homo sapiens, UniProt P23945)"
measurement = 5.77

[[record]]
compound = "COc1cc(C(=O)N2Cc3ccc(C(=O)NCc4ccccc4)n3Cc3ccccc32)ccc1-c1ccccc1C"
systemname = "human FSH receptor (Homo sapiens, UniProt P23945)"
measurement = 5.87

[[record]]
compound = "COc1ccccc1-c1ccc(C(=O)N2Cc3ccc(C(=O)NCC(c4ccccc4)N(C)C)n3Cc3ccccc32)cc1 (centres unmarked)"
systemname = "human FSH receptor (Homo sapiens, UniProt P23945)"
measurement = 4.59

[[record]]
compound = "COc1ccc(CCNC(=O)c2ccc3n2Cc2ccccc2N(C(=O)c2ccc(-c4ccccc4C)c(OC)c2)C3)cc1OC"
systemname = "human FSH receptor (Homo sapiens, UniProt P23945)"
measurement = "< 4.52"

[[record]]
compound = "COc1cc(C(=O)N2Cc3ccc(C(=O)NCCc4ccc(O)cc4)n3Cc3ccccc32)ccc1-c1ccccc1C"
systemname = "human FSH receptor (Homo sapiens, UniProt P23945)"
measurement = "< 4.52"

[[record]]
compound = "O=C(NCc1ccc(Cl)c(Cl)c1)c1ccc2n1Cc1ccccc1N(C(=O)CSc1ccc(Br)cc1)C2"
systemname = "human FSH receptor (Homo sapiens, UniProt P23945)"
measurement = "< 4.52"


Recall and state the measured pIC50 for Cc1ccccc1-c1ccc(C(=O)N2Cc3ccc(C(=O)NCc4ccccc4)n3Cc3ccccc32)cc1C . 5.59

Recall and state the measured pIC50 for COc1cc(C(=O)N2Cc3ccc(C(=O)NCCc4ccc(Cl)cc4)n3Cc3ccccc32)ccc1-c1ccccc1C . < 4.52

Recall and state the measured pIC50 for COc1ccccc1-c1ccc(C(=O)N2Cc3ccc(C(=O)NCCc4ccc(O)cc4)n3Cc3ccccc32)cc1C . < 4.52

Recall and state the measured pIC50 for Cc1cccc(CNC(=O)c2ccc3n2Cc2ccccc2N(C(=O)c2ccc(-c4ccccc4C)c(C)c2)C3)c1 . 5.54

Recall and state the measured pIC50 for COC(=O)c1ccc(NC(=O)c2ccc3n2Cc2ccccc2N(C(=O)COc2ccc(Cl)cc2)C3)cc1OC . < 4.52

Recall and state the measured pIC50 for COc1ccc(CCNC(=O)c2ccc3n2Cc2ccccc2N(C(=O)c2ccc(-c4ccccc4C)c(C)c2)C3)cc1OC . < 4.52

Recall and state the measured pIC50 for CCOC(=O)c1cccc(NC(=O)c2ccc3n2Cc2ccccc2N(C(=O)COc2ccc(Cl)cc2)C3)c1 . < 4.52

Recall and state the measured pIC50 for Cc1ccccc1-c1ccc(C(=O)N2Cc3ccc(C(=O)NC4CCc5ccccc54)n3Cc3ccccc32)cc1C (centres unmarked) . < 4.52

Recall and state the measured pIC50 for Cc1ccccc1-c1ccc(C(=O)N2Cc3ccc(C(=O)NCc4ccc(C(=O)c5ccccc5)cc4)n3Cc3ccccc32)cc1C . < 4.52

Recall and state the measured pIC50 for O=C(NCCc1ccc(O)cc1)c1ccc2n1Cc1ccccc1N(C(=O)COc1ccc(Cl)cc1)C2 . 4.88

Recall and state the measured pIC50 for COc1cc(C(=O)N2Cc3ccc(C(=O)NCc4ccc(F)cc4)n3Cc3ccccc32)ccc1-c1ccccc1C . 5.95

Recall and state the measured pIC50 for COc1cc(C(=O)N2Cc3ccc(C(=O)NCCCCc4ccccc4)n3Cc3ccccc32)ccc1-c1ccccc1C . < 4.52

Recall and state the measured pIC50 for Cc1ccccc1-c1ccc(C(=O)N2Cc3ccc(C(=O)NCc4ccc(N(C)C)cc4)n3Cc3ccccc32)cc1C . < 4.52

Recall and state the measured pIC50 for COc1cc(CNC(=O)c2ccc3n2Cc2ccccc2N(C(=O)c2ccc(-c4ccccc4C)c(C)c2)C3)cc(OC)c1 . 4.92

Recall and state the measured pIC50 for COc1cc(C(=O)N2Cc3ccc(C(=O)NC4Cc5ccccc5C4)n3Cc3ccccc32)ccc1-c1ccccc1C . < 4.52

Recall and state the measured pIC50 for COc1ccc(CCNC(=O)c2ccc3n2Cc2ccccc2N(C(=O)c2ccc(-c4ccccc4C)c(OC)c2)C3)cc1 . < 4.52

---

measurementName: melting point

[[record]]
chemsmiles = "COc1cc(C(=O)N2Cc3ccc(C(=O)NCc4ccc(F)cc4)n3Cc3ccccc32)ccc1-c1ccccc1C"
measurement = "214 to 215 °C"

[[record]]
chemsmiles = "O=C(NCc1cccc(C(F)(F)F)c1)c1ccc2n1Cc1ccccc1N(C(=O)COc1ccc(Cl)cc1)C2"
measurement = "143 to 145 °C"


Recall and state the measured melting point for Cc1ccccc1-c1ccc(C(=O)N2Cc3ccc(C(=O)NCc4ccc5c(c4)OCO5)n3Cc3ccccc32)cc1C . 149 to 151 °C

Recall and state the measured melting point for COc1cc(CNC(=O)c2ccc3n2Cc2ccccc2N(C(=O)c2ccc(-c4ccccc4C)c(OC)c2)C3)cc(OC)c1 . 175 °C

Recall and state the measured melting point for COc1cc(C(=O)N2Cc3ccc(C(=O)NCc4ccc5c(c4)OCO5)n3Cc3ccccc32)ccc1-c1ccccc1C . 167 to 168 °C

---

systemName: human FSH receptor (Homo sapiens)
Sequence (P23945 18-695): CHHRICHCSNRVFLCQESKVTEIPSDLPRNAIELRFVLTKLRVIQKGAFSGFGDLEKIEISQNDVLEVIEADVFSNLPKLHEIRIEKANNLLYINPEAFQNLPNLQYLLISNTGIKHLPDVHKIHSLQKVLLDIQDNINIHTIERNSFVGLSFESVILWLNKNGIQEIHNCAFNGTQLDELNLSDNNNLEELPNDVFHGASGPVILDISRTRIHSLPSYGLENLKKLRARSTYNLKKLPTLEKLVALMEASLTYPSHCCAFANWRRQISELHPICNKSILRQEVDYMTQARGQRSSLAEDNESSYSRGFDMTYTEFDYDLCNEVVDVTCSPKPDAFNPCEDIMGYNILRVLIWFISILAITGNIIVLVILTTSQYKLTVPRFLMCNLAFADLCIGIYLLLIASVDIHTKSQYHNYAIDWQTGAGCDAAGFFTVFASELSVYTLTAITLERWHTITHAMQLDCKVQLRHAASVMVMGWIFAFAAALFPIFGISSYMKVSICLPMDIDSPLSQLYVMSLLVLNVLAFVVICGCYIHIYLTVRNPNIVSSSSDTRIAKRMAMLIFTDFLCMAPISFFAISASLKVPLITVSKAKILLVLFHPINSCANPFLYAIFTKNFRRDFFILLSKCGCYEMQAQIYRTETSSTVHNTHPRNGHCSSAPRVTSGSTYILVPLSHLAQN
assayProcedure: Follicle-Stimulating Hormone Receptor-Dependent Cre-Luciferase Reporter Gene Assay (CHO FSH-R 6CRE-Luc cells)
testParameters: dose-response format, in presence of EC50 of purified human FSH
measurementName: IC50

Some solved cases for reference:
[[record]]
molecule = "COc1cc(C(=O)N2Cc3ccc(C(=O)NCc4ccc5c(c4)OCO5)n3Cc3ccccc32)ccc1-c1ccccc1C"
systemname = "human FSH receptor (Homo sapiens)"
measurementname = "IC50"
measurement = "1.05 µM"

[[record]]
molecule = "Cc1ccccc1-c1ccc(C(=O)N2Cc3ccc(C(=O)NCc4cccc(O)c4)n3Cc3ccccc32)cc1C"
systemname = "human FSH receptor (Homo sapiens)"
measurementname = "IC50"
measurement = "4.14 µM"

[[record]]
molecule = "O=C(NCc1cccc(C(F)(F)F)c1)c1ccc2n1Cc1ccccc1N(C(=O)COc1ccc(Cl)cc1)C2"
systemname = "human FSH receptor (Homo sapiens)"
measurementname = "IC50"
measurement = "> 30 µM"


Recall and state the measured IC50 for CCOC(=O)c1ccc(NC(=O)c2ccc3n2Cc2ccccc2N(C(=O)COc2ccc(Cl)cc2)C3)cc1 . > 30 µM

Recall and state the measured IC50 for O=C(NCCc1ccc2c(c1)OCO2)c1ccc2n1Cc1ccccc1N(C(=O)CSc1ccc(Br)cc1)C2 . > 30 µM

Recall and state the measured IC50 for COc1cc(C(=O)N2Cc3ccc(C(=O)NCc4ccc5c(c4)OCCO5)n3Cc3ccccc32)ccc1-c1ccccc1C . 3.4 µM

Recall and state the measured IC50 for COc1cc(C(=O)N2Cc3ccc(C(=O)NCC(c4ccccc4)c4ccccc4)n3Cc3ccccc32)ccc1-c1ccccc1C . > 30 µM

Recall and state the measured IC50 for CC(C)(C)c1ccc(NC(=O)c2ccc3n2Cc2ccccc2N(C(=O)COc2ccc(Cl)cc2)C3)cc1 . > 30 µM

Recall and state the measured IC50 for Cc1ccccc1-c1ccc(C(=O)N2Cc3ccc(C(=O)NCC(c4ccccc4)c4ccccc4)n3Cc3ccccc32)cc1C . > 30 µM

Cited source for all entries: patent US7691848B2
